biological target: Solute carrier family 22 member 1 (Homo sapiens); test: TP_TRANSPORTER: inhibition of MPP+ uptake in Xenopus laevis oocytes
Sequence (O15245 whole entry): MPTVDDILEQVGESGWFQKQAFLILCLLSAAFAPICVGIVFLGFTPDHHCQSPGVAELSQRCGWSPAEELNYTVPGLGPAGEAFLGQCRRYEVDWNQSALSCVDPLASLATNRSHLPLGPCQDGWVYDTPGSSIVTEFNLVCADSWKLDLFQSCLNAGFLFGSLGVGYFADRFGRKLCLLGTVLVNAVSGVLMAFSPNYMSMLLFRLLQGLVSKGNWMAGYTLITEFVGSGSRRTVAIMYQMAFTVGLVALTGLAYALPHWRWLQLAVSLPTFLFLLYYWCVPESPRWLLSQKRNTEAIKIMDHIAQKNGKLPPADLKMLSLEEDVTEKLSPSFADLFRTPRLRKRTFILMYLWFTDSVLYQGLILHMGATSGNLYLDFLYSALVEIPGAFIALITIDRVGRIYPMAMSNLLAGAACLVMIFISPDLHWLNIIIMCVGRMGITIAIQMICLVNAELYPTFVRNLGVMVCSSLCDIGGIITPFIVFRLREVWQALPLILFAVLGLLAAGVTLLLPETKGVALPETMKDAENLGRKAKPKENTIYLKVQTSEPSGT
Parameter: pKi
Schema: pKi number; meaning minus log10 of the concentration expressed in molar units.

CC[N+](CC)(CC)CC [TETRYLAMMONIUM]: 3.79

Data request: Any idea what its pKi is? The compound is CC(=O)O[C@H]1C[C@@H]2CC[C@@H]3[C@H](CC[C@@]4(C)[C@H]3C[C@H]([N+]3(C)CCCCC3)[C@@H]4OC(C)=O)[C@@]2(C)C[C@@H]1N1CCCCC1 [VECURONIUM]
Data returned: 3.92

Data request: Any idea what its pKi is? The compound is CCN1/C(=C/c2ccc3ccccc3[n+]2CC)C=Cc2ccccc21
Data returned: 5.36
